target: MAP3K10 (human) (UniProt Q02779); assay: radiometric filter-binding kinase assay, Kinase HotSpot; conditions: compound 0.5 µM; ATP 10 µM
Sequence (Q02779 whole entry, looked up): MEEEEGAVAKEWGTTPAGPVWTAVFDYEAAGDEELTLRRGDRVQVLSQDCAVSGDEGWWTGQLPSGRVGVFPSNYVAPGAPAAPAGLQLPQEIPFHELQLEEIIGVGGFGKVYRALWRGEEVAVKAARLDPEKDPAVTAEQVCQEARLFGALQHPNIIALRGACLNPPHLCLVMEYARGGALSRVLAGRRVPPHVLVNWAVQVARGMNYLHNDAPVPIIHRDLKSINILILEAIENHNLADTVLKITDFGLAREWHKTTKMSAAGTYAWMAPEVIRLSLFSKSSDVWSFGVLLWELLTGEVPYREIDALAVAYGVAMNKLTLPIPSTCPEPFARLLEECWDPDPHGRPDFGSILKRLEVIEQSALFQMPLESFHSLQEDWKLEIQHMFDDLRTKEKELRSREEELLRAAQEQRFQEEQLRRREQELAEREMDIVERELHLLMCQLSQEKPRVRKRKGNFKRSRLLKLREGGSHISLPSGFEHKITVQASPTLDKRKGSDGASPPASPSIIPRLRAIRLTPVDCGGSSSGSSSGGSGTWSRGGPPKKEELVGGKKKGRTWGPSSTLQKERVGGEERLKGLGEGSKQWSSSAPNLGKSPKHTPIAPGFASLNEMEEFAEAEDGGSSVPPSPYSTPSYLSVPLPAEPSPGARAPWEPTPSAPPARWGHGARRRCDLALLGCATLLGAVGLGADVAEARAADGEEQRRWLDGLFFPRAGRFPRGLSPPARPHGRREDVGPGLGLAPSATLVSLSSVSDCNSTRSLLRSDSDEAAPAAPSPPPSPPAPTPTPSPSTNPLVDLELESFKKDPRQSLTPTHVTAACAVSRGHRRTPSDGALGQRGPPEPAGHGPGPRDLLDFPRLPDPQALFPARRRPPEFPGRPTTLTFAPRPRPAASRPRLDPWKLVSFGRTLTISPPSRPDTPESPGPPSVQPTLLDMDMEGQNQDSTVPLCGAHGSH
MEASUREMENT_KIND: residual activity (%)

> print(dat)
                                  cpd.smiles  result.units  readout.value
 1     O=c1cc(N2CCOCC2)oc2c(-c3ccccc3)cccc12             %           90.1
 2  O=C1NC(=O)c2cc(Nc3ccc(F)cc3)c(Nc3ccc(F)cc3)cc21             %           90.6
 3  O=c1c(-c2ccc(F)cc2)c(-c2ccncc2)[nH]n1-c1ccc(Cl)cc1             %           88.1
 4  O=C1NC(=O)c2c1c1c3ccccc3[nH]c1c1[nH]c3cc(Br)ccc3c21             %           70.4
 5  N#CCCc1ccc2c(c1)-c1[nH]c3ccc([N+](=O)[O-])cc3c1CC(=O)N2             %             30
 6          O=C(c1ccccc1)c1ccc(N2CCOCC2)cc1O             %            100
 7  c1ccc(-c2cnc(Nc3ccc(OCCN4CCCC4)cc3)s2)cc1             %           95.7
 8      COc1cc2ncnc(Nc3ccc(O)c(Br)c3)c2cc1OC             %           98.2
 9  O=c1[nH]c2ccccc2n1C1CCN(Cc2ccc(-c3nc4cc5[nH]cnc5cc4nc3-c3ccccc3)cc2)CC1             %            102
10    N#Cc1c(NC(=O)c2cccc3ccccc23)sc2c1CCCC2             %           85.4
11  O=S(=O)(NCCNC/C=C/c1ccc(Br)cc1)c1cccc2cnccc12             %           85.5
12  FC(F)(F)c1ccc(/C=C/c2nc(COc3ccc(CCCCn4ccnn4)cc3)co2)cc1             %           98.9
13  N#C/C(=C1/Nc2ccccc2S1)c1ccnc(NCCc2cccnc2)n1             %           79.6
14  O=c1c2ccccc2[nH]c(=S)n1CCN1CCC(=C(c2ccc(F)cc2)c2ccc(F)cc2)CC1             %           99.6
15   Cc1cc(Nc2nc(-c3ccccc3)nc3ccccc23)n[nH]1             %           75.4
16  COc1cc2c(Nc3ccc(Br)cc3F)ncnc2cc1OCC1CCN(C)CC1             %            102
17       CCOc1cc2ncnc(Nc3cccc(Br)c3)c2cc1OCC             %           93.2
18          COc1cccc(-c2cc(=O)c3ccccc3o2)c1N             %             90
19                   Nc1ncnc2c1cnn2-c1ccccc1             %           88.6
20  COc1cc2c(N3CCN(C(=O)Nc4ccc(OC(C)C)cc4)CC3)ncnc2cc1OCCCN1CCCCC1             %            101
21  O=C(O)c1ccc2c3c1cccc3c(=O)n1c3ccccc3nc21             %           99.3
22  N/C(=N\N=C/c1ccc(-c2cccc([N+](=O)[O-])c2)o1)N[N+](=O)[O-]             %            101
